Cited source for all entries: patent US20210332083A1

System: hypoxia induced pulmonary hypertensive mice
ASSAY_PROTOCOL: Hemodynamic analysis (mPAP, RVSP by catheter) in hypoxia induced PH mice
Assay type: in vivo, C57BL/6 mice
TEST_CONTEXT: mice, 10% oxygen 21 days, 15 ng/day s.c. mini-osmotic pump; hypoxia 40.54±4.473, normoxia 19.41±1.281; mean±SEM
No end group written: not given here. mini‑PEG = diethylene glycol
I'd be grateful if you could share measured mean pulmonary arterial pressure (mPAP) for these entries.
Report the value in mmHg with no unit label.

// fetch hypoxia induced pulmonary hypertensive mice mean pulmonary arterial pressure (mPAP) for (mini-PEG)-CDCRHNTAG ({mini‑PEG}-CDCRHNTAG; not fully specified (bridges); printed as (mini-PEG)-CDCRHNTAG; cysteine pairing not given here) [V1P] 21.88

// fetch hypoxia induced pulmonary hypertensive mice mean pulmonary arterial pressure (mPAP) for CPCKDGVTGIT (Peptide based on human Netrin-1 sequence) [V3-11aa, 423-433 aa] 29.35

// fetch hypoxia induced pulmonary hypertensive mice mean pulmonary arterial pressure (mPAP) for (mini-PEG)-CPCKDGVTIGIT ({mini‑PEG}-CPCKDGVTIGIT; cysteine pairing not given here) [V3P] 20.22

// fetch hypoxia induced pulmonary hypertensive mice mean pulmonary arterial pressure (mPAP) for (mini-PEG)-CLNCRHNTAG ({mini‑PEG}-CLNCRHNTAG; cysteine pairing not given here) [V2P] 27.39

// fetch hypoxia induced pulmonary hypertensive mice mean pulmonary arterial pressure (mPAP) for CDCRHNTAG [V1-9aa] (Peptide based on human Netrin-1 sequence) [304-312 aa of human netrin-1] 23.83

// fetch hypoxia induced pulmonary hypertensive mice mean pulmonary arterial pressure (mPAP) for TDCRHNTAG (Peptide based on human Netrin-1 sequence) [V1T] 24.52

// fetch hypoxia induced pulmonary hypertensive mice mean pulmonary arterial pressure (mPAP) for CLNCRHNTAG (Peptide based on human Netrin-1 sequence) [V2-10aa, 368-377 aa] 25.74
